# procedure summary: Plasma concentrations after oral dosing (solution in apple juice) of human volunteers, Example 1A
# Type: in vivo
# recorded conditions: human, plasma, po, 15 mg, subject 6 (68 kg); 15 mg oral; 0.5 h
endpoint: concentration at 0.5 h
Give your result as the value with the unit written after it.

Exercise: concentration at 0.5 h for COc1cc2c(cc1OC)[C@H]1C[C@@H](O)[C@H](CC(C)C)CN1CC2 [(+)-α-dihydrotetrabenazine] ?
Key: 5.41 ng/mL

---

# procedure summary: Plasma concentrations after oral dosing (solution in apple juice) of human volunteers, Example 1A
# Format: in vivo
# recorded conditions: human, plasma, po, 7.5 mg, subject 3 (129 kg); 7.5 mg oral; 0.5 h
endpoint: concentration at 0.5 h (ng/mL)
Could you give me the number in ng/mL? Just the number is fine.

Exercise: concentration at 0.5 h for COc1cc2c(cc1OC)[C@H]1C[C@@H](O)[C@H](CC(C)C)CN1CC2 [(+)-α-dihydrotetrabenazine] ?
Key: 0.216
